- Tested on: P388 leukemia ip, CD2F1 mice, survival T/C
- METHOD: NCI In Vivo Anticancer Drug Screen. Data for tumor model P388 Leukemia (intraperitoneal) in CD2F1 (CDF1) mice
- CONDITIONS: endpoint: median survival time; dose: 100.0 mg/kg/injection; schedule: Q01DX005 (ip); vehicle: Klucel (hydroxypropylcellulose) (HPC); higher = longer survival
Toxic doses and inconclusive results are not listed. Peptide text beside a SMILES is read from it. * marks the point of attachment. Cbz = O=C(OCc1ccccc1)*
ATTRIBUTE_MEASURED: T/C

Solved cases (2 shown):
# COMPOUND, ATTRIBUTE_MEASURED, ASSAY_RESULT
data = [
    ("O=C(O)C(Cc1cn(Cc2ccccc2)cn1)NCc1ccccc1 (stereo unspecified)", "T/C", "104 % of control"),
    ("O=C(CSC1CCc2ccccc21)NNC(=O)Nc1ccc(Cl)cc1 (stereo unspecified)", "T/C", "95 % of control"),
]

List reported T/C for each of these compounds:
1. COc1cc(C(=O)NC(=S)Nc2csc(-c3ccc(F)cc3)n2)cc(OC)c1OC
2. CCCCOc1ccc(C(C)c2cc3c(cc2OCC)OCO3)cc1 (stereo unspecified)
3. Cc1ccc(S(=O)(=O)CCC(=O)c2ccc([N+](=O)[O-])cc2)cc1
4. COc1c(NC(C)=O)c2c(c([N+](=O)[O-])c1OC)C(=O)OC2
5. Cc1ccc(S(=O)(=O)N2CCCCN(S(=O)(=O)c3ccc(C)cc3)COC2)cc1
6. CC1=CCC(C#N)N(C)C1c1ccccc1 (stereo unspecified)

Reply:
1. 94 % of control
2. 100 % of control
3. 96 % of control
4. 104 % of control
5. 101 % of control
6. 97 % of control

List reported T/C for each of these compounds:
1. Cc1nnsc1C(=O)NCc1c(F)cccc1Cl
2. COC(=O)C(CO)NC(=O)C(NC(=O)OCc1ccccc1)C(C)O (stereo not drawn) (Cbz-Thr-Ser-OMe; configuration not given here)

Reply:
1: 99 % of control; 2: 101 % of control

Query: If you can, please state the reported T/C value of [N-]=[N+]=Nc1nn2cnnc2c2[nH]c3ccccc3c12 .
Reply: 96 % of control
